# tgt: human CB1 receptor (Homo sapiens, UniProt P21554)
# Construct: expressed in transfected cells; host or cells: HEK293
# Sequence (P21554 whole entry): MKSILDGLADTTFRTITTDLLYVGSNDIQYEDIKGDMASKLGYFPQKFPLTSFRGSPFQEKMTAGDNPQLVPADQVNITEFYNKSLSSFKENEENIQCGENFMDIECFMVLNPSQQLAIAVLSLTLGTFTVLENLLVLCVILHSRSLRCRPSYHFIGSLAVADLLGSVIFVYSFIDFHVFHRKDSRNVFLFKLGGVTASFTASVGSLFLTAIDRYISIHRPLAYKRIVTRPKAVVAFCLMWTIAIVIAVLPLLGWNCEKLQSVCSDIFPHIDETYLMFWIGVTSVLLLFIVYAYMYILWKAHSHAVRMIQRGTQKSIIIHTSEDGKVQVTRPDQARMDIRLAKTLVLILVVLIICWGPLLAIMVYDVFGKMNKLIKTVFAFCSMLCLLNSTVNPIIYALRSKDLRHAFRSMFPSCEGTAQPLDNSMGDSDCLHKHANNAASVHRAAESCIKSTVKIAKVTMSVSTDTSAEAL
# protocol.summary: bioSensAll GAPL-Gi2 BRET biosensor assay in HEK293 cells transfected with hCB1; test compound added before EC75-80 of agonist CP55,940 (0.1 nM)
# Type: cell-based
# condition.info: vs CP55,940 0.1 nM (EC75-80), read-out: CB1 wt Gi2 IC50
# key: entry, value: IC50

Input: Report IC50 for N#Cc1ccc(-c2nc3c(N4CC(C(N)=O)C4)nc(N4CCC[C@H]4CO)nc3n2-c2ccc(Cl)cc2)cn1 please.
Output: 1.22 nM

Input: # input compound: CCNC1(C(N)=O)CCN(c2nc(N3CCC[C@H]3CO)nc3c2nc(-c2ccccc2Cl)n3-c2ccc(Cl)cc2)CC1 ; wanted: its IC50
Output: 0.837 nM

Input: Would you kindly share the measured IC50 for FC(F)(F)C1CCN(c2nc(N3C[C@H]4CCC[C@H]4C3)nc3c2nc(-c2ccccc2Cl)n3-c2ccc(Cl)cc2)CC1 ?
Output: 14.4 nM

Input: Name the reported IC50 value associated with the compound CC1(C(N)=O)CCN(c2nc(C(=O)O)nc3c2nc(-c2ccccc2Cl)n3-c2ccc(Cl)cc2)CC1
Output: > 5000 nM
